// reported melting point for each item listed
MEASUREMENT TYPE: melting point

INSERT INTO results (compound, measurement_type, result) VALUES
  ('Cc1cc(SCc2ccc(OCc3ccc(Cl)cc3Cl)cc2)ccc1OCC(=O)O [Example 32]', 'melting point', '143 to 145 °C'),
  ('Cc1cc(SCc2cc(-c3ccc(Cl)cc3)on2)ccc1OCC(=O)O [Example 96]', 'melting point', '152 to 153 °C'),
  ('COc1cc(OCC(=O)O)c(C)cc1SCc1cccc(-c2cccc(OC(F)(F)F)c2)c1 [Example 16]', 'melting point', '92 to 94 °C'),
  ('Cc1cc(SCc2ccc(-c3ccc(C(F)(F)F)cc3)cc2)ccc1OCC(=O)O [Example 3]', 'melting point', '140 to 141 °C'),
  ('Cc1cc(SCc2ccc(-c3ccc(C(F)(F)F)cc3)cc2)c2c(c1OCC(=O)O)CCC2 [Example 28]', 'melting point', '177 °C'),
  ('O=C(O)COc1ccc(SCc2ccccc2OCc2ccc(C(F)(F)F)cc2)c2c1CCC2 [Example 81]', 'melting point', '150 to 152 °C'),
  ('Cc1cc(SCc2ccc(-c3ccc(C(F)(F)F)cn3)cc2)c2c(c1OCC(=O)O)CCC2 [Example 27]', 'melting point', '186 °C'),
  ('COc1cc(OCC(=O)O)c(C)cc1SCCc1ccc(-c2ccc(C(F)(F)F)cc2)cc1 [Example 23]', 'melting point', '169 to 171 °C'),
  ('O=C(O)COc1ccc(SCc2cccc(OCc3ccc(C(F)(F)F)cc3)c2)c2c1CCC2 [Example 79]', 'melting point', '145 to 146 °C'),
  ('O=C(O)COc1ccc(CCc2ccc(-c3ccc(C(F)(F)F)cc3)cc2)c2c1CCC2 [Example 91]', 'melting point', '188 to 190 °C'),
  ('Cc1cc(SCc2ccc(OCc3ccc(Cl)cc3)cc2)ccc1OCC(=O)O [Example 58]', 'melting point', '164 °C'),
  ('COc1cc(OCC(=O)O)c(C)cc1SCc1ccc(/C=C/c2cccc(F)c2)cc1 [Example 29]', 'melting point', '154 °C (dec.)'),
  ('Cc1cc(SCc2ccc(-c3ccccc3)cc2)ccc1OCC(=O)O [Example 2]', 'melting point', '138 °C'),
  ('O=C(O)COc1ccc(SCc2ccc(OCc3cc(Cl)ccc3Cl)cc2)c2c1CCC2 [Example 71]', 'melting point', '158 to 160 °C'),
  ('COc1cc(OCC(=O)O)c(C)cc1SCc1ccc(-c2ccc(C(F)(F)F)cn2)cc1 [Example 18]', 'melting point', '225 °C (dec.)'),
  ('Cc1cc(SCc2ccc(OCc3ccc(C(F)(F)F)cc3)cc2)c2c(c1OCC(=O)O)CCC2 [Example 64]', 'melting point', '165 to 167 °C'),
  ('Cc1cc(SCc2ccc(-c3ccc(C(F)(F)F)cc3)cc2)c(Cl)cc1OCC(=O)O [Example 20]', 'melting point', '161 to 162 °C'),
  ('O=C(O)COc1ccc(SCc2ccc(-c3ccc(C(F)(F)F)cc3)cc2)c2c1CCCO2 [Example 93]', 'melting point', '170 to 172 °C'),
  ('O=C(O)COc1ccc(SCc2cc(-c3ccccc3Cl)on2)c2c1CCC2 [Example 87]', 'melting point', '161 to 162 °C'),
  ('O=C(O)COc1ccc(SCc2ccc(-c3ccc(C(F)(F)F)cn3)cc2)c2c1CCCO2 [Example 86]', 'melting point', '178 to 179 °C'),
  ('COc1cc(OCC(=O)O)c(C)cc1SCc1ccc(-c2ccc(C(F)(F)F)cc2)cc1 [Example 4]', 'melting point', '170 to 171 °C'),
  ('Cc1cc(CCc2ccc(-c3ccc(C(F)(F)F)cc3)cc2)ccc1OCC(=O)O [Example 25]', 'melting point', '174 to 176 °C'),
  ('Cc1onc(-c2c(Cl)cccc2Cl)c1CSc1ccc(OCC(=O)O)c2c1CCC2 [Example 88]', 'melting point', '151 to 152 °C'),
  ('Cc1cc(SCc2ccc(-c3ccc(C(F)(F)F)cn3)cc2)c2c(c1OCC(=O)O)CCCO2 [Example 36]', 'melting point', '156 to 157 °C'),
  ('COc1cc(OCC(=O)O)c(C)cc1SCc1ccc(-c2ccccc2)cc1 [Example 1]', 'melting point', '60 to 62 °C'),
  ('O=C(O)COc1ccc(SCc2ccc(OCc3ccc(Cl)c(C(F)(F)F)c3)cc2)c2c1CCC2 [Example 73]', 'melting point', '151 to 152 °C'),
  ('O=C(O)COc1ccc(SCc2ccc(OCc3ccc(F)cc3)cc2)c2c1CCC2 [Example 65]', 'melting point', '153 to 155 °C'),
  ('Cc1cc(SCc2cc(-c3ccc(C(F)(F)F)cc3)on2)c(Cl)cc1OCC(=O)O [Example 99]', 'melting point', '180 to 182 °C'),
  ('Cc1cc(SCCc2ccc(-c3ccc(C(F)(F)F)cc3)cc2)ccc1OCC(=O)O [Example 22]', 'melting point', '132 to 134 °C');

* * *

Target: hPPARβ (Homo sapiens)
Test: Transient transfection assay in HepG2 cells, Gal4-hPPARβ chimeric receptor, luciferase reporter
Assay type: cell-based
Conditions: Hep G2-hBeta EC50, 24 hours incubation; read-out: EC50β nM (Group)
MEASUREMENT TYPE: EC50

INSERT INTO measurements (structure, result) VALUES
  ('O=C(O)COc1ccc(SCc2ccc(OCc3cc(Cl)ccc3Cl)cc2)c2c1CCCO2', '1000 to 2000 nM'),
  ('COc1cc(OCC(=O)O)c(C)cc1SCc1ccc(-c2ccc(C(F)(F)F)cc2)cc1', '< 300 nM'),
  ('Cc1cc(SCc2ccc(-c3ccc(C(F)(F)F)cn3)cc2)c2c(c1OCC(=O)O)CCC2', '2000 to 5000 nM'),
  ('COc1cc(OCC(=O)O)c(C)cc1SCc1ccc(-c2ccc(F)cc2)cc1', '< 300 nM');

* * *

Biological target: hPPARβ (Homo sapiens, UniProt Q03181)
Assay: Transient transfection assay in HepG2 cells, Gal4-hPPARβ chimeric receptor, luciferase reporter
Assay type: cell-based
pEC50: −log10 of the molar value.
MEASUREMENT TYPE: pEC50

INSERT INTO assay_data (structure, measurement_type, result) VALUES
  ('CC(C)(C)c1ccc(COc2ccc(CSc3ccc(OCC(=O)O)c4c3CCC4)cc2)cc1', 'pEC50', '> 6.52');

* * *

Target: hPPARβ (Homo sapiens, UniProt Q03181)
Sequence (Q03181 171-441 limits assumed): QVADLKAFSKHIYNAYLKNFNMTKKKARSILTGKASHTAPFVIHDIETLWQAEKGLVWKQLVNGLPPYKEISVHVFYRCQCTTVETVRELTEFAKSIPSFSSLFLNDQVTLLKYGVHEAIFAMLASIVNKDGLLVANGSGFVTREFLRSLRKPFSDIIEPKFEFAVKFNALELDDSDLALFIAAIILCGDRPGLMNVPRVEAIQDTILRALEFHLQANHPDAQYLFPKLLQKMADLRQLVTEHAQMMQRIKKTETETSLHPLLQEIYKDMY
Assay: Transient transfection assay in HepG2 cells, Gal4-hPPARβ chimeric receptor, luciferase reporter
Format: cell-based
Details: Hep G2-hBeta EC50, 24 hours incubation; read-out: EC50β nM (Group)
MEASUREMENT TYPE: EC50

INSERT INTO measurements (compound, result) VALUES
  ('COc1cc(OCC(=O)O)c(C)cc1SCc1cccc(-c2cccc(OC(F)(F)F)c2)c1 [Example 16]', '< 300 nM'),
  ('Cc1cc(SCCc2ccc(-c3ccc(C(F)(F)F)cc3)cc2)ccc1OCC(=O)O [Example 22]', '1000 to 2000 nM'),
  ('O=C(O)COc1ccc(SCc2cc(-c3ccc(Cl)cc3)no2)c2c1CCC2 [Example 98]', '2000 to 5000 nM'),
  ('O=C(O)COc1ccc(SCCc2ccc(-c3ccc(C(F)(F)F)cc3)cc2)c2c1CCC2 [Example 90]', '500 to 1000 nM'),
  ('Cc1cc(SCc2ccc(-c3ccc(C(F)(F)F)cc3)cc2)c(Cl)cc1OCC(=O)O [Example 20]', '< 300 nM'),
  ('Cc1cc(CCc2ccc(-c3ccc(C(F)(F)F)cc3)cc2)ccc1OCC(=O)O [Example 25]', '2000 to 5000 nM'),
  ('COc1cc(OCC(=O)O)c(C)cc1SCCc1cn(Cc2ccc(C(F)(F)F)cc2)c2ccccc12 [Example 54]', '300 to 500 nM'),
  ('COc1cc(OCC(=O)O)c(C)cc1SCc1ccc(-c2ccccc2)cc1 [Example 1]', '< 300 nM');

These entries and their values trace back to patent US6964983B2.
